# Test Conditions: human, plasma, po, 70 mg/m2
Reported Property: AUC(0-inf) (µg·h/mL)

compound="CCc1c2c(nc3ccc(OC(=O)N4CCC(N5CCCCC5)CC4)cc13)-c1cc3c(c(=O)n1C2)COC(=O)[C@]3(O)CC [Irinotecan]" reported_property=AUC(0-inf) output_unit=µg·h/mL val=0.594

###

# Test Conditions: human, plasma, po, 70 mg/m2
Reported Property: Tmax (h)

compound="CCc1c2c(nc3ccc(OC(=O)N4CCC(N5CCCCC5)CC4)cc13)-c1cc3c(c(=O)n1C2)COC(=O)[C@]3(O)CC [Irinotecan]" val=1.97

###

# Test Conditions: human, plasma, po, 70 mg/m2
Reported Property: CMAX (ng/mL)

cpd_smiles=CCc1c2c(nc3ccc(OC(=O)N4CCC(N5CCCCC5)CC4)cc13)-c1cc3c(c(=O)n1C2)COC(=O)[C@]3(O)CC reported_property=CMAX val=93.9
